# Tested system: human Siglec-7 on primary human monocyte-derived dendritic cells (human, UniProt Q9Y286 19-467)
# Sequence (Q9Y286 19-467): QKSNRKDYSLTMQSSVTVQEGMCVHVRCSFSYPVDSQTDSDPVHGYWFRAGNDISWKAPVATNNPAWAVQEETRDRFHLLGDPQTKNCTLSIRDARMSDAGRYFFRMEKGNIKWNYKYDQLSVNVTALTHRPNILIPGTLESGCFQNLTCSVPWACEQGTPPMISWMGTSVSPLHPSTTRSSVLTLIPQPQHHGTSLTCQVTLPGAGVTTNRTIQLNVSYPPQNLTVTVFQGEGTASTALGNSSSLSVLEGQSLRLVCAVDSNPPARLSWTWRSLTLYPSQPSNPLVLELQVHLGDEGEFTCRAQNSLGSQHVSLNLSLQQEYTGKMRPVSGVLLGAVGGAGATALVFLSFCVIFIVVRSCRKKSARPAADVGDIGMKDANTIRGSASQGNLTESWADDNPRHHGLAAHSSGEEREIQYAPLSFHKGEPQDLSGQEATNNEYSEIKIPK
# Experiment summary: cell-based or functional assay
Form field: Fold increase in potency compared to Chimeric Ab (one value per entry).
Give the value in fold but do not write fold after it.

S7AB-H8.33 (antibody, V domains shown) VH: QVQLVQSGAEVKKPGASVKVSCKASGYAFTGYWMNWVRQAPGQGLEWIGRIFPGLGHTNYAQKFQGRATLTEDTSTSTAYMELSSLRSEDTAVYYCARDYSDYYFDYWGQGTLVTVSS VL: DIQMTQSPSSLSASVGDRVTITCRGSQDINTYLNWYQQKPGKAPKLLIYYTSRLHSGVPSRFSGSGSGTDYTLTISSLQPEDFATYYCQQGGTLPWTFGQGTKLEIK : 15.7

Consider now this further binder.
Notebook: S7AB-H8.17 (antibody, V domains shown) VH: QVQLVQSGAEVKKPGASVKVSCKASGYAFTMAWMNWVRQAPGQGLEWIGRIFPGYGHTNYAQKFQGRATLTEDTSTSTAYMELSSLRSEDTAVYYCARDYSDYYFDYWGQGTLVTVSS VL: DIQMTQSPSSLSASVGDRVTITCRGSQDTNTYLNWYQQKPGKAPKLLIYYTSRLHSGVPSRFSGSGSGTDYTLTISSLQPEDFATYYCQQGNTLPWTFGQGTKLEIK , Fold increase in potency compared to Chimeric Ab read as 8.8
